EXPERIMENTAL PROTOCOL: yeast display, Sf9 membrane polyspecificity reagent, FACS + sequencing; frameworks hold sequencing errors
READOUT TYPE: polyreactivity (PSR sort gate)

Would you please look over these solved cases?
>>> obs_value("QVQLVESGGGLVQAGGSLRLSCAASGFTIRSYVMGWYRQAPGKERELVAAIRRSGGSTYYADSVKGRFTISRDNAKNTVYVQLNSLKPEDTAFYYCNAPHHRYDWGQGTQVTVSS")
"high polyreactivity"
>>> obs_value("QVQLVESGGGLVQAGGSLRLSCAASGRIFGTNSIGWYIQAPRKERELVSAISSSTSTNYADSVKGRFTISRDNAKNTVYLLMYSLKRDDTAFYYFDADELRTDWDYAQGYDYWGQGTQVTVSS")
"low polyreactivity"
>>> obs_value("QVQLVESGGGLVQAGGSLRLSCAASGRIFYPYAMGWYRQAPGKERELVAAITWSTGRTYYADSVKGRFTISRDNAKNTVYLQMNSLKPEDTAVYYCAATGTLKRRYGYWGQGTQVTVSS")
"high polyreactivity"
>>> obs_value("QVHLVESGGGLVQAGGSLRLSCAASGRTFGRKAMGWYRQAPGKERELVASITKRGGSTYYADSVKGRFTISRDNAKNTVYLQMNSLKPVDTAVYYCAVEAYDYWGQGTQVTVSS")
"high polyreactivity"
>>> obs_value("QVQLVESGGGLVQAGGSLRLSCDASGRTLDVNARGWYRQAPGKERELVAAISYSGGITYYADSVKGRFTISRDNAKNTVYLQMNRLKPEDTAVYYCAVVGGYPSYTVDYWGKGTQVTVSS")
"low polyreactivity"

Specify measured polyreactivity (PSR sort gate) for QVQLVESGGRLVQAGGSLRLSCAASGITFYLYAMGWYRQAPGKERELVAAISSSGGSTYYADSVKGRFTISRDNEKNTVYLQMNSLKPEDTAVYYCAAVFYTSVTIYDYWGQGTQVTVSS .
high polyreactivity

Determine its reported polyreactivity (PSR sort gate): QVQLVESGGGLVQAGGSLRLSCAASGFTFGIYAMGWYRQAPGKERELVAAITKGGGSTYYADSVKGRFTISRDNAKNTVYLQMNSLKPEDTAVYYCAARRVSERRVGYWGQGTQVTVSS
high polyreactivity

For the sequence QVQLVESGGGLVQAGGSLRLSCAASGRTFYDNAMGWYRQAPGKERELVAAITKSGGRTYYADSVKGRFTISRDNAKNTVYLQMNSLKPEDTAVYYCAASWPNYLYEYWGQGTQVTVSS , report polyreactivity (PSR sort gate).
high polyreactivity

* * *

EXPERIMENTAL PROTOCOL: yeast display, Sf9 membrane polyspecificity reagent, FACS + sequencing; frameworks hold sequencing errors
READOUT TYPE: polyreactivity (PSR sort gate)

>>> obs_value("QVQLVESGGGLVQAGGSLRLSCAASGFIFKYYAMGWYRQAPGKERELVAAISRSGGSTYYADSVKGRFTISRDNAKNTVYLLMNSLKPEDTAVYYCAADSSWVHEYYYWGQGTQVTVSS")
"high polyreactivity"
>>> obs_value("QVQLVESGGGLVQAGGSLRLSCAASGRIFAVNAMGWYRQAPGKERELVASIRWSGGSTYYADSVKGRFTISRDNAKNTVYLQMNSLKPEDTAVYYCAAVFYLWGQGTQVTVSS")
"high polyreactivity"
>>> obs_value("QVQLVESGGGLVQAGGSLRLTCAASGYTFRAYVMGWYRQAPGKERELVAGITRRGGTTYYADSVKGRFTISRYNAKNTVYLQMNSLKPEDTAVYYCNAVYRSGSIPYDSWGQGTQVTVSS")
"high polyreactivity"
>>> obs_value("QVQLVESGGGLVQAGGSLRLSCAASGTFGVYAMGWYRQAPGKERELVAVITDSGGTNYADSVKGRFTISRDNAKNTVYLQMNSLKPEDTAVYYCNTDAGDYYGENYWGQGTQVTVSS")
"low polyreactivity"
>>> obs_value("QVQLVESGGGLVQAGGSLRLSCAASGFIFWYNAMGWYRQAPGKERELVASISGSGGSTYYADSVKGRFTISRDNAKNTVYLQMNSLKPEDTAVYYCAVYFFSFWGQGTQVTVSS")
"low polyreactivity"
>>> obs_value("QVQLVESGGGLVQAGGSLRLSCAASGRTFSYYAMGWYRQAPGKERELVAAISQRGGSTYYADSVKGRFTISRDNAKNTVYLQMNSLKPEDTAVYYCAVLVSRYRYRVLDDYWGQGTQVTVSS")
"high polyreactivity"
>>> obs_value("QVQLVESGGGLVQAGVSLRLSCAASGTFYYAMGWYRQAPGKEREFVAAISWRGGTTYYADSVKGRFTISRDNAKNTVYLQMNSLKPEDTAVYYCATAPYVTSRRYGPYEYWGQGTQVTVSS")
"low polyreactivity"
>>> obs_value("QAQLEESGGGLVQAVGSLRLSCAASGRTFTNNDMGWYIQAPGKERELVAAIRWSGGSTYYADSVKGRFTISRDNAKNTVYFQMNSLKPEDTAVYYCAKGYGYVEAVIVQYDYWGQGTQVTVSS")
"low polyreactivity"

Output measured polyreactivity (PSR sort gate) for this item: QVQLVESGGGLVQAGGSLRLSCAASGIIFRPYAMGWYRQAPGKERELVAAITWSGTSTYYADSVKGRFTISRDNAKNTVYLQMNSLKPEDTAVYYCAARNVFQSVHLRGGYWGQGTQVTVSS
high polyreactivity

Using the record for QVQLVESGGGLVQAGGSLRLSCAASGFTLGRNAMGWYRQAPGKERELVASISGRGGSSYYADSVKGRFTISRDNAKNTVYLQMNSLKPEDTAVYYCAARGVSGKYYYWGQGTQVTVSS , state its measured polyreactivity (PSR sort gate).
high polyreactivity

Specify measured polyreactivity (PSR sort gate) for QVQLVESGGGLVQAGGSLRLSCAASGSIFTKYAMGWYRQAPGKERELVAGISRTTGSTYYADSVKGRFTISRDNAKNTVYLQMNSLKPEDTAVSYCNAVYGHGNYFRSEDDYWGQGTQVTVSS .
high polyreactivity

Look up and state reported polyreactivity (PSR sort gate) for QVQLVESGGGLVQAGGSLRLSCAASGLIFRLYAMGWYIQAPGKERELVAAISGGGGSTYYADSVKGRFTISRDNAKNTVYLQMNSLKPEDTAVYYCAATYSRGYWWSEYDYWGQGTQVTVSS
low polyreactivity

Answer with the recorded polyreactivity (PSR sort gate) of QVQLEESGGGLVQAGGSLRLSCAASGSIFTDYAMGSYGQAPGKERELVAAITSGGSTNYADSVKGRFTISRDNAKNTVYLQMNSLKPEDTAVYYCNADDYWLDSWSSDLWYDYWGQGTQVTVSS only.
low polyreactivity

Output polyreactivity (PSR sort gate) of QVQLVESGGGLVQAGGSLRLTCAASGRTFPSYTMGWYRQAPGKERELVAAITWSGGSTYADSVKGRFSISRDNAKNTVYLQMKSLKPEDSAVYYCNAPIIAYDDGGSLVRYGRGDYWGQGTQVTVSS
low polyreactivity

Output measured polyreactivity (PSR sort gate) for this item: QVQLVESGGGLVQAGGSLRLSCAASGIIFYRNTMGWYRQAPGKERELVAAIRRGGNTYYADSVKGRFTISRDNAKNTVYLQMNSLKPEDTAVYYCAAEDYNGRQYYHKMDYWGQGTQVTVSS
high polyreactivity

* * *

EXPERIMENTAL PROTOCOL: yeast display, Sf9 membrane polyspecificity reagent, FACS + sequencing; frameworks hold sequencing errors
READOUT TYPE: polyreactivity (PSR sort gate)

>>> obs_value("QVQLVESGGGLVQAGGSLRLSCAASGSIFTHNAMGWYRQAPGKERVLVAAISSGGSTNYADSVKGRFTISRDNAKNTVYLQMNSLKPEDTAVYYCAKSIDGWYWRRRRYDYWVQGTQVTVSS")
"low polyreactivity"
>>> obs_value("QVQLVESGGGLVQAGGSLRLSCAASGSTSYNAMGWYIQAPGKERELVAAISDGGGSTYYADSVKGRFTISRDNAKNTVYLQMNSLKPEDTAVYYCAADTITGDGYWGQGTQVTVSS")
"low polyreactivity"

* * *

EXPERIMENTAL PROTOCOL: yeast display, Sf9 membrane polyspecificity reagent, FACS + sequencing; frameworks hold sequencing errors
READOUT TYPE: polyreactivity (PSR sort gate)

>>> obs_value("QVQHVESGGGLVQAGGSLRLSCAASGSIFASYAMGWYRLAAGKERELVAAISRRAVLTYYADSVKGRFTISRDNPKNTVYLQMNSLKPEDTAVYFCNARGYSGYQRYGYNYWGQGTQVTVSS")
"high polyreactivity"
>>> obs_value("QVQLVESGGGLVQAGGSLRLSCAASGSTFYGYAMGWYRQAPGKERELVAAITRSGGSTYYADSVKGRFTISRDNAKNTVYLQMNSLKPEDSEVYYCNKYGYKGGVGYDYWGQGTEVTVSS")
"high polyreactivity"
>>> obs_value("QVQLVESGGGLVQAGGSLRLSCAASGSIFSYYVMGWYRQAPGKERELVAAITRSGGSTYYADSVKGRFTISRDNAKNTVYLQMNRLKPEDTAVYYCAATYSHRRGDYWGQGTQVTVSS")
"high polyreactivity"
>>> obs_value("QVQLVESGGGLVQAGGSLRLSCAASGFTFFKYAMGWYRQAPGKERVLVAAITRNGGRTYYADSVKGRFTISRDNAKNTVYLQMNSLKPEDTAVYYCNAASVNGGRDFDYWGQGTQVTVSS")
"high polyreactivity"

Values compiled from the nanobody polyreactivity screen of Harvey et al. (2022).
